- Tested on: HOP-62 NSCLC
- assayText: NCI-60 one-dose screen, 48 h (100 = growth as untreated, 0 = no growth, -100 = all killed)
- testSettings: 10 µM unless noted
The panel holds about 83,000 compounds, 20% with a hit somewhere; the sample as a whole holds those more often.
measuredMetric: growth (%)

>  <molecule>
O=C1c2ccccc2-c2c1c1c(=O)[nH]c3ccccc3c1n2Cc1ccccc1

>  <systemUnderTest>
HOP-62 NSCLC

>  <displayUnit>
%

>  <resultValue>
75.8

$$$$
>  <molecule>
CN(C)CC1CCC(CN(C)C)C1=O (stereo not given)

>  <systemUnderTest>
HOP-62 NSCLC

>  <displayUnit>
%

>  <resultValue>
106

$$$$
>  <molecule>
O=C(O)CCN1C(=O)/C(=C/C(Cl)=C/c2ccccc2)SC1=S

>  <systemUnderTest>
HOP-62 NSCLC

>  <displayUnit>
%

>  <resultValue>
53.9

$$$$
>  <molecule>
O=S(=O)(NCCCNc1nccc(-c2c(-c3ccc(F)c(O)c3)nc3occn23)n1)c1ccc(Cl)cc1

>  <systemUnderTest>
HOP-62 NSCLC

>  <displayUnit>
%

>  <resultValue>
88.3

$$$$
>  <molecule>
CC(=O)N1N=C(c2ccc(Nc3nc(Nc4ccccc4)nc(Nc4ccccc4)n3)cc2)CC1c1ccccc1 (stereo not given)

>  <systemUnderTest>
HOP-62 NSCLC

>  <displayUnit>
%

>  <resultValue>
77.6

$$$$

---

- Tested on: A549/ATCC NSCLC
- assayText: NCI-60 one-dose screen, 48 h
- testSettings: 10 µM unless noted
This is part of a sample that, as a whole, favours compounds with a hit. Of some 83,000 tested, about 20% had one in any assay. Activity calls are given as the source filed them. The calls were made as follows: active = growth percent below 10; inactive = the rest.
Classes used: yes (active), no (inactive)

>  <compound>
O=C(CN1CCCCC1)Nc1nc(-c2cc3ccccc3oc2=O)cs1

>  <classAssignment>
no

$$$$
>  <compound>
Cc1sc2nc(NCCc3c[nH]c4ccc(Cl)cc34)[nH]c(=O)c2c1C

>  <classAssignment>
yes

$$$$
>  <compound>
O=C(COc1ccc(-c2nc3cc(Cl)c(Cl)cc3[nH]2)cc1)N=Nc1c(O)[nH]c2ccc(Cl)cc12

>  <classAssignment>
no

$$$$
>  <compound>
N#Cc1nc(-c2ccc(Cl)cc2)oc1S(=O)(=O)N1CCN(c2ccc(F)cc2)CC1

>  <classAssignment>
no

$$$$
>  <compound>
COc1cc2c(cc1OCCCN1CCN(CCCOc3cc4c(cc3OC)C(=O)N3CCC[C@H]3C=N4)CC1)C=CC(C)(C)O2

>  <classAssignment>
yes

$$$$
>  <compound>
CC1CCN(S(=O)(=O)c2ccc(S(=O)(=O)N3CCCC(c4nc5c(nnn5Cc5cccc(Cl)c5)c(=O)[nH]4)C3)cc2)CC1 (centres undefined)

>  <classAssignment>
no

$$$$
>  <compound>
CCOC(=O)c1ccc2c(c1)nc(-c1ccccc1)n2C1CCCCC1

>  <classAssignment>
no

$$$$
>  <compound>
O=C(NNC(=O)c1ccc(NC(=O)c2ccccn2)cc1)Nc1ccc([N+](=O)[O-])cc1

>  <classAssignment>
no

$$$$
>  <compound>
CN1CCc2nc3sc(C(N)=O)c(N)c3c(-c3cccs3)c2C1

>  <classAssignment>
no

$$$$
>  <compound>
CCCOC(=O)Nc1nc2ccc(SCC(C)C)cc2s1

>  <classAssignment>
no

$$$$
>  <compound>
c1ccc2cc(C[n+]3ccn(CCCCCCCCCCn4cc[n+](Cc5ccc6ccccc6c5)c4)c3)ccc2c1

>  <classAssignment>
no

$$$$
>  <compound>
COc1cc2ncnc(Nc3ccc(S(=O)(=O)Nc4cc(C)on4)cc3)c2cc1OCCCN1CCN(c2ccc(F)cc2)CC1

>  <classAssignment>
no

$$$$
>  <compound>
Cc1[nH]c(C(=O)Nc2ccc(C(=O)N3CCN(c4cc5c(cc4F)c(=O)c(C(=O)O)cn5C4CC4)CC3)cc2OC(C)C)c(Cl)c1Cl

>  <classAssignment>
no

$$$$
>  <compound>
CCC(=O)Oc1ccc(-c2ccccc2)cc1Br

>  <classAssignment>
no

$$$$
>  <compound>
C#COc1cccc(Nc2c(C#N)cnc3ncc(NC(=O)CCl)cc23)c1

>  <classAssignment>
no

$$$$
>  <compound>
COc1cccc(/C=C2\COc3ccc(O)c(O)c3C2=O)c1

>  <classAssignment>
no

$$$$
>  <compound>
N#Cc1ccc(O)c(C2=NCC(c3cccc(Oc4ccccc4)c3)O2)c1 (centres undefined)

>  <classAssignment>
yes

$$$$
>  <compound>
C=C1C(=O)O[C@H]2[C@H]1CC/C(COC(=O)NCc1ccc(Cn3c(=O)sn(CCCCC)c3=O)cc1)=C\CC[C@@]1(C)O[C@@H]21

>  <classAssignment>
no

$$$$
>  <compound>
COc1ccc(C(=O)c2cc3c(N)c(C(=O)Nc4ccc(C)cc4)sc3nc2C)cc1

>  <classAssignment>
no

$$$$

---

- Tested on: HCT-15 colon
- assayText: NCI-60 one-dose screen, 48 h (100 = growth as untreated, 0 = no growth, -100 = all killed)
- testSettings: 10 µM unless noted
This is part of a sample that, as a whole, favours compounds with a hit. Of some 83,000 tested, about 20% had one in any assay.
As shown below, each of these compounds has a reported growth value.
measuredMetric: growth (%)

>  <compound>
CC(O)(c1ccccc1)C(c1ccccc1)C1CCCCN1 (stereo not drawn)

>  <systemUnderTest>
HCT-15 colon

>  <measuredMetric>
growth

>  <displayUnit>
%

>  <resultValue>
96.6

$$$$
>  <compound>
Cc1cc(C)c2c(c1)N(C)c1ncnc(-n3cnc4cc(C)ccc43)c1CC2C (stereo not drawn)

>  <systemUnderTest>
HCT-15 colon

>  <measuredMetric>
growth

>  <displayUnit>
%

>  <resultValue>
23.4

$$$$
>  <compound>
COC1/C=C/OC2(C)Oc3c(C)c(O)c4c(O)c(c(/C=N/Nc5ccc([N+](=O)[O-])cc5[N+](=O)[O-])c(O)c4c3C2=O)NC(=O)C(C)=C/C=C/C(C)C(O)C(C)C(O)C(C)C(OC(C)=O)C1C (stereo not drawn)

>  <systemUnderTest>
HCT-15 colon

>  <measuredMetric>
growth

>  <displayUnit>
%

>  <resultValue>
41.6

$$$$
>  <compound>
N#Cc1c(-c2ccccc2)[nH]c2ncc(-c3ccccc3)n2c1=O

>  <systemUnderTest>
HCT-15 colon

>  <measuredMetric>
growth

>  <displayUnit>
%

>  <resultValue>
93.5

$$$$
>  <compound>
CCC(=O)Oc1ccc(-c2ccccc2)cc1Br

>  <systemUnderTest>
HCT-15 colon

>  <measuredMetric>
growth

>  <displayUnit>
%

>  <resultValue>
105

$$$$
>  <compound>
COc1cc(OC)c(/C=C/C(=O)c2c(OC)cccc2OC)c(OC)c1

>  <systemUnderTest>
HCT-15 colon

>  <measuredMetric>
growth

>  <displayUnit>
%

>  <resultValue>
15.7

$$$$
>  <compound>
CCCCCN1C(=O)/C(=c2\sc3n(c2=O)C2C(NN=3)N(CC)C(=O)N2CC)c2ccccc21 (stereo not drawn)

>  <systemUnderTest>
HCT-15 colon

>  <measuredMetric>
growth

>  <displayUnit>
%

>  <resultValue>
1.05

$$$$
>  <compound>
CCC(C)(C)C(=O)O[C@H]1C[C@@H](C)C=C2C=C[C@H](C)[C@H](CC[C@@H]3CC(SCCN)CC(=O)O3)[C@H]21 (stereo partly drawn)

>  <systemUnderTest>
HCT-15 colon

>  <measuredMetric>
growth

>  <displayUnit>
%

>  <resultValue>
100

$$$$
>  <compound>
COc1cc2nc3cc([N+](=O)[O-])ccc3c(NCCNCC(C)O)c2cc1OC (stereo not drawn)

>  <systemUnderTest>
HCT-15 colon

>  <measuredMetric>
growth

>  <displayUnit>
%

>  <resultValue>
23.4

$$$$
>  <compound>
c1csc(-c2ccc(CNc3c4ccccc4nc4ccccc34)cc2)c1

>  <systemUnderTest>
HCT-15 colon

>  <measuredMetric>
growth

>  <displayUnit>
%

>  <resultValue>
-66.2

$$$$
>  <compound>
O=C(Nc1ccc(Oc2cccc(F)c2)c(Cl)c1)c1cccnc1

>  <systemUnderTest>
HCT-15 colon

>  <measuredMetric>
growth

>  <displayUnit>
%

>  <resultValue>
29.9

$$$$
>  <compound>
C[PH+](c1nc2ccccc2nc1[PH+](C)C(C)(C)C)C(C)(C)C.C[PH+](c1nc2ccccc2nc1[PH+](C)C(C)(C)C)C(C)(C)C.[Au+].[Cl-] (stereo not drawn)

>  <systemUnderTest>
HCT-15 colon

>  <measuredMetric>
growth

>  <displayUnit>
%

>  <resultValue>
-80.9

$$$$
>  <compound>
Cc1ccc2c(n1)C(=O)C(Br)=C(C1CCCC1)C2=O

>  <systemUnderTest>
HCT-15 colon

>  <measuredMetric>
growth

>  <displayUnit>
%

>  <resultValue>
99.5

$$$$
>  <compound>
O=C(O)c1cn(C2CC2)c2cc(N3CCN(C(=O)N(c4ccccc4)c4nc(-c5ccccc5)cs4)CC3)c(F)cc2c1=O

>  <systemUnderTest>
HCT-15 colon

>  <measuredMetric>
growth

>  <displayUnit>
%

>  <resultValue>
6.28

$$$$
>  <compound>
CC(C)=CC(=O)OCC(=O)O[C@@H]1C[C@]2(C(C)C)O[C@@]1(C)[C@@H]1CC[C@@H](C)[C@H]1[C@@H]2OC(=O)/C=C/c1ccccc1

>  <systemUnderTest>
HCT-15 colon

>  <measuredMetric>
growth

>  <displayUnit>
%

>  <resultValue>
86.8

$$$$
>  <compound>
COc1ccc(/C=C/C(=O)c2cccc(OCCCCOc3cccc(C(=O)/C=C/c4ccc(OC)c(OC)c4)c3)c2)cc1OC

>  <systemUnderTest>
HCT-15 colon

>  <measuredMetric>
growth

>  <displayUnit>
%

>  <resultValue>
80.9

$$$$
>  <compound>
Oc1c(I)cc(I)cc1CNCCN(Cc1ccccn1)Cc1ccccn1

>  <systemUnderTest>
HCT-15 colon

>  <measuredMetric>
growth

>  <displayUnit>
%

>  <resultValue>
-30.4

$$$$
>  <compound>
O=C(Nc1nc(-c2ccc(Cl)cc2)nc2c1sc(=S)n2-c1ccccc1)C(F)(F)F

>  <systemUnderTest>
HCT-15 colon

>  <measuredMetric>
growth

>  <displayUnit>
%

>  <resultValue>
54.9

$$$$
